- protocol: Lipophilicity, log D of the compound
- Format: physicochemical
- run parameters: octanol/water
parameter: logD

* O=C(O)[C@@H]1C[C@H](Oc2ccc3c(c2)OCC3)CN1 | -0.1
* O=C(O)[C@@H]1C[C@H](Oc2ccc(Cl)c(F)c2)CN1 | 0.1
* Cl.O=C(O)[C@@H]1C[C@H](Oc2cccc(Cl)c2)CN1 | -0.1
* O=C(O)[C@@H]1C[C@H](Sc2cccc(Cl)c2)CN1 | 0.3
* O=C(O)[C@@H]1C[C@H](OCc2ccc(Cl)cc2)CN1 | -0.2

###

- protocol: Displacement of [3H]gabapentin from voltage gated calcium channel alpha2delta from pig cerebral cortex by scintillation counting
- Assay type: tissue-based, Sus scrofa
Just a reminder that ties go to rule not met: only IC50 strictly below 300 nM counts as rule met.

* C[C@@H](CNCC(=O)O)Oc1ccc(Cl)cc1 | rule not met
* O=C(O)[C@@H]1C[C@H](Oc2ccc(Cl)cn2)CN1 | rule not met
* N#Cc1ccccc1O[C@@H]1CN[C@H](C(=O)O)C1 | rule not met
* CC(C)(C)OC(=O)[C@@H]1C[C@H](Oc2cccc(Cl)c2)CN1 | rule not met
* O=C(O)[C@@H]1C[C@H](Oc2ccc3ccccc3c2)CN1 | rule met
* O=C(O)[C@@H]1C[C@H](Sc2cccc(Cl)c2)CN1 | rule met
